System: C2C12 myotubes
The label is true (1) for Viability below -0.003 and false (0) for Viability equal to or exceeding -0.003.

>  <Compound>
COP(=S)(OC)Oc1ccc([N+](=O)[O-])cc1 [methyl parathione]

>  <Target Desc>
C2C12 myotubes

>  <Class Name>
false (0)

$$$$
>  <Compound>
O=C(CCBr)N1CCN(C(=O)CCBr)CC1 [pipobroman]

>  <Target Desc>
C2C12 myotubes

>  <Class Name>
true (1)

$$$$
>  <Compound>
NS(=O)(=O)c1cc(C2(O)NC(=O)c3ccccc32)ccc1Cl (centres unmarked) [chlorthalidone]

>  <Target Desc>
C2C12 myotubes

>  <Class Name>
false (0)

$$$$
>  <Compound>
NCCc1ccc(O)c(O)c1 [dopamine]

>  <Target Desc>
C2C12 myotubes

>  <Class Name>
true (1)

$$$$
>  <Compound>
CC[C@H](C)[C@H](NC)C(=O)O [N-methylisoleucine]

>  <Target Desc>
C2C12 myotubes

>  <Class Name>
false (0)

$$$$
>  <Compound>
CC(=O)O[C@H]1CC[C@@]2(C)C(=CC[C@@H]3[C@@H]2CC[C@]2(C)C(=O)CC[C@@H]32)C1 [praesterone acetate]

>  <Target Desc>
C2C12 myotubes

>  <Class Name>
false (0)

$$$$
>  <Compound>
C=C1C[C@]23C[C@@]1(O)CC[C@H]2[C@@]12C=C[C@H](O)[C@@](C)(C(=O)O1)[C@H]2[C@@H]3C(=O)O [gibberellic acid]

>  <Target Desc>
C2C12 myotubes

>  <Class Name>
true (1)

$$$$

###

Tested on: OXPHOS gene expression
Format: cell-based, mouse
Settings: normalized composite Z-score vs mock-treated (DMSO) wells; Conc 20 μM

>  <Molecule>
O=C(O[C@@H]1Cc2c(O)cc(O)cc2O[C@@H]1c1cc(O)c(O)c(O)c1-c1c([C@H]2Oc3cc(O)cc(O)c3C[C@H]2OC(=O)c2cc(O)c(O)c(O)c2)cc(O)c(O)c1O)c1cc(O)c(O)c(O)c1 [2′,2′-bisepigallocatechin digallate]

>  <GE-HTS>
−0.865

$$$$
>  <Molecule>
CC(=O)Oc1cc(OC(C)=O)c2c(c1)O[C@H](c1ccc(OC(C)=O)c(OC(C)=O)c1)[C@@H](OC(C)=O)C2 [catechin pentaacetate]

>  <GE-HTS>
0.269

$$$$
>  <Molecule>
Cc1cc(=O)c2c(O)c3c(cc2o1)OCC(C)CC3 (stereo not drawn) [dihydroptaeroxylin]

>  <GE-HTS>
−0.581

$$$$

###

Let's look at some compounds and their measured cyt c (composite Z-score vs DMSO).
Tested on: cytochrome c
Format: cell-based, mouse
Measured Quantity: cyt c (composite Z-score vs DMSO)

>  <Compound>
N[C@@H](CCC(=O)N[C@@H](CS)C(=O)NCC(=O)O)C(=O)O [glutathione]

>  <Recorded Number>
−0.913

$$$$
>  <Compound>
O=C1C=CC(=O)c2c(O)cccc21 [juglone]

>  <Recorded Number>
0.266

$$$$
>  <Compound>
CN(C)CCC=C1c2ccccc2COc2ccccc21 [doxepin]

>  <Recorded Number>
−0.095

$$$$
>  <Compound>
O=c1c(-c2ccc(O)cc2)coc2cc(O)cc(O)c12 [genistein]

>  <Recorded Number>
0.295

$$$$
>  <Compound>
CC1(C)O[C@@H]2C[C@H]3[C@@H]4C[C@H](F)C5=CC(=O)C=C[C@]5(C)[C@H]4[C@@H](O)C[C@]3(C)[C@]2(C(=O)CO)O1 [flunisolide]

>  <Recorded Number>
−0.257

$$$$
>  <Compound>
Clc1ccccc1CN1CCc2sccc2C1 [ticlopidine]

>  <Recorded Number>
−0.316

$$$$
>  <Compound>
CC(C)NCC(O)COc1ccc(CC(N)=O)cc1 (stereo not drawn) [atenolol, reference compound]

>  <Recorded Number>
0.403

$$$$
>  <Compound>
C[C@]12C=CC(=O)C=C1CC[C@H]1[C@@H]3C[C@@H](O)[C@](O)(C(=O)CO)[C@@]3(C)C[C@H](O)[C@@]12F [triamcinolone]

>  <Recorded Number>
0.087

$$$$
>  <Compound>
CCCC(C)C1(CC)C(=O)NC(=S)NC1=O (stereo not drawn) [thiopental]

>  <Recorded Number>
−0.299

$$$$
